tested on: Escherichia coli; assay: In vitro antibacterial evaluation: minimum inhibitory concentration (MIC), broth dilution method; format: cell-based; settings: 5×10^5 CFU/mL, 18 hours at 35° C.
Excerpt: […]

compound	displayUnit	MIC Escherichia coli (GC 4560)
COc1cccc(C2OCC3OC(OC4C(CO)OC(Oc5ccc(CC6NC(=O)C(C(C)c7ccccc7)NC(=O)CNC(=O)C(CO)NC(=O)C(C(O)C7CNC(=N)N7C7OC(CO)C(O)C(O)C7O)NC(=O)C(C(O)C7CNC(=N)N7)NC6=O)cc5)C(O)C4O)C(O)C(O)C3O2)c1 (stereo not shown) [Example 137]	µg/mL	1
CC(c1ccccc1)C1NC(=O)CNC(=O)C(CO)NC(=O)C(C(O)C2CNC(=N)N2C2OC(CO)C(O)C(O)C2O)NC(=O)C(C(O)C2CNC(=N)N2)NC(=O)C(Cc2ccc(OC3OC(CO)C(OC4OC5COC(c6cccc(O)c6)OC5C(O)C4O)C(O)C3O)cc2)NC1=O (stereo not shown) [Example 136]	µg/mL	4
CC(c1ccccc1)C1NC(=O)CNC(=O)C(CO)NC(=O)C(C(O)C2CNC(=N)N2C2OC(CO)C(O)C(O)C2O)NC(=O)C(C(O)C2CNC(=N)N2)NC(=O)C(Cc2ccc(OC3OC(CO)C(OC4OC5COC(CC67CC8CC(CC(C8)C6)C7)OC5C(O)C4O)C(O)C3O)cc2)NC1=O (stereo not shown) [Example 129]	µg/mL	2
COc1ccc(CC2OCC3OC(OC4C(CO)OC(Oc5ccc(CC6NC(=O)C(C(C)c7ccccc7)NC(=O)CNC(=O)C(CO)NC(=O)C(C(O)C7CNC(=N)N7C7OC(CO)C(O)C(O)C7O)NC(=O)C(C(O)C7CNC(=N)N7)NC6=O)cc5)C(O)C4O)C(O)C(O)C3O2)cc1 (stereo not shown) [Example 103]	µg/mL	1
